Hey, just so you know, these numbers are from patent US20130310611A1.

measurement.target: rat intestine derived lipase
protocol.notes: Lipase inhibitory action test (Lipase kit S)
experimental.conditions: 30° C., 10 minutes reaction
reported.metric: IC50 (µM)

INSERT INTO results (compound, unit_label, result_number) VALUES
  ('CC(CC(/C=C/c1ccc(O)cc1)c1ccc(O)cc1)c1ccc(O)cc1 (stereo not shown)', 'µM', 60.4),
  ('CC(/C=C/c1ccc(O)c(O)c1)c1ccc(O)c(O)c1 (stereo not shown)', 'µM', 253);

(I) COc1cc(/C=C/C(C)c2ccc(O)c(O)c2)ccc1O (stereo not shown)
(II) CC(/C=C/c1ccc(O)c(C(C)c2ccc(O)cc2)c1)c1ccc(O)cc1 (stereo not shown)
Task: Lab log: flag the item ( I or II ) with the smaller IC50 figure. Respond with the label that goes with your answer.
Result: I
(I: 118 µM, II: 197 µM)

(a) CC(/C=C/c1cc(O)c(O)cc1C(C)c1ccc(O)c(O)c1)c1ccc(O)c(O)c1 (stereo not shown)
(b) CC(/C=C/c1ccc(O)cc1)c1ccc(O)cc1 (stereo not shown)
Task: Select the item whose IC50 value is smaller, choosing between a and b . Provide the label of your selected option as the answer.
Result: a
(a: 188 µM, b: 438 µM)
